# target_entity: human FXR (NR1H4) (Homo sapiens, UniProt Q96RI1)
# Construct: host or cells: CHO (Chinese hamster ovary) reporter cells
# Sequence (Q96RI1 whole entry): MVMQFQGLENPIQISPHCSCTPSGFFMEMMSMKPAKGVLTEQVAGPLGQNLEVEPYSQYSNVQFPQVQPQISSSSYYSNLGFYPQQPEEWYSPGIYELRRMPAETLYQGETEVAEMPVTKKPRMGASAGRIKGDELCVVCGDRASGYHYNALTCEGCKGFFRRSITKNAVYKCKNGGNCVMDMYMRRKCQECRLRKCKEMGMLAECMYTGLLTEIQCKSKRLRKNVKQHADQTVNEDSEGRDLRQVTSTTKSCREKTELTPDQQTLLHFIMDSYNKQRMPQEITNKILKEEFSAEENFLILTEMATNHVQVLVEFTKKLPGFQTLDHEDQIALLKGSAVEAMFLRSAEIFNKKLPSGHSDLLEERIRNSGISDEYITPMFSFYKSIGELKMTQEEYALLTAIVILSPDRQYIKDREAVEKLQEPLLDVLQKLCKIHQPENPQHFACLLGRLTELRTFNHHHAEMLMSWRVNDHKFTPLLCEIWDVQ
# test_summary: Human FXR (NR1H4) Assay: Gal4 promoter driven luciferase reporter transactivation in CHO cells (Indigo Bioscience kit IB00601); note: efficacy normalized to CDCA set as 100%
# Format: cell-based
# cond: CHO; read-out: Efficacy (%)
readout: Emax (%)

[[record]]
compound = "Cc1c(C(=O)O)ccc2nc(N3C4CCC3CC(NCc3c(-c5c(Cl)cccc5Cl)noc3C3CC3)C4)sc12 (stereo not shown)"
units = "%"
test_value = 83.5

[[record]]
compound = "O=CC1(S(=O)(=O)NC(=O)c2cc(F)c3nc(N4C5CCC4CC(NCc4c(-c6c(Cl)cccc6Cl)noc4C4CC4)C5)sc3c2)CC1 (stereo not shown)"
units = "%"
test_value = 154

[[record]]
compound = "COC(=O)c1cc(C)c2nc(N3C4CCC3CC(NCc3c(-c5ccccc5C(F)(F)F)noc3C3CC3)C4)sc2c1 (stereo not shown)"
units = "%"
test_value = 46

[[record]]
compound = "COc1nc2cc(C(=O)NS(=O)(=O)C3(C)CC3)ccc2nc1N1C2CCC1CC(NCc1c(-c3c(Cl)cccc3Cl)noc1C1CC1)C2 (stereo not shown)"
units = "%"
test_value = 76

[[record]]
compound = "O=C(NS(=O)(=O)C1CCCC1)c1ccc2nc(N3C4CCC3CC(NCc3c(-c5c(Cl)cccc5Cl)noc3C3CC3)C4)sc2c1 (stereo not shown)"
units = "%"
test_value = 277

[[record]]
compound = "O=C(NS(=O)(=O)C1CC1)c1ccc2nc(N3C4CCC3CC(NCc3c(-c5ccccc5OC(F)(F)F)noc3C3CC3)C4)ccc2c1 (stereo not shown)"
units = "%"
test_value = 82.5

[[record]]
compound = "O=C(NS(=O)(=O)C1CC1)c1cc(F)c(N2C3CCC2CC(NCc2c(-c4ccccc4OC(F)(F)F)noc2C2CC2)C3)c(F)c1 (stereo not shown)"
units = "%"
test_value = 70.5


* * *

# target_entity: human FXR (NR1H4) (Homo sapiens, UniProt Q96RI1)
# Construct: host or cells: CHO (Chinese hamster ovary) reporter cells
# test_summary: Human FXR (NR1H4) Assay: Gal4 promoter driven luciferase reporter transactivation in CHO cells (Indigo Bioscience kit IB00601); note: efficacy normalized to CDCA set as 100%
# Format: cell-based
# cond: CHO; read-out: Efficacy (%)
readout: Emax (%)

[[record]]
compound = "O=C(NS(=O)(=O)C1CC1)c1cc(F)c2nc(N3C4CCC3CC(NCc3c(-c5c(Cl)cccc5Cl)noc3C3CC3)C4)sc2c1 (stereo not shown)"
test_value = 155

[[record]]
compound = "CC(C)Oc1cc(C(=O)NS(=O)(=O)N2CCCC2)cc2sc(N3CCC(NCc4c(-c5c(Cl)cccc5Cl)noc4C4CC4)CC3)nc12"
test_value = 110

[[record]]
compound = "O=C(O)c1ccc2nc(N3C4CCC3CC(NCc3c(-c5c(Cl)cccc5Cl)noc3C3CC3)C4)oc2c1 (stereo not shown)"
test_value = 56

[[record]]
compound = "CC(C)Oc1cc(C(=O)NS(=O)(=O)C2(C)CC2)cc2sc(N3C4CCC3CC(NCc3c(-c5ccccc5C(F)(F)F)noc3C3CC3)C4)nc12 (stereo not shown)"
test_value = 136

[[record]]
compound = "CC(C)(C)c1ccc(S(=O)(=O)NC(=O)c2ccc3nc(N4C5CCC4CC(NCc4c(-c6c(Cl)cccc6Cl)noc4C4CC4)C5)sc3c2)cc1 (single isomer, unassigned) [Example 262]"
test_value = 289

[[record]]
compound = "CCOc1cc(C(=O)NS(=O)(=O)C2(C)CC2)cc2sc(N3C4CCC3CC(NCc3c(-c5c(Cl)cccc5Cl)noc3C3CC3)C4)nc12 (stereo not shown)"
test_value = 104

[[record]]
compound = "CC1(S(=O)(=O)NC(=O)c2ccc3nc(N4C5CCC4CC(NCc4c(-c6ccccc6C(F)(F)F)noc4C4CC4)C5)oc3c2)CC1 (stereo not shown)"
test_value = 74

[[record]]
compound = "O=C(O)c1cnc2nc(N3C4CCC3CC(NCc3c(-c5c(Cl)cccc5Cl)noc3C3CC3)C4)sc2n1 (stereo not shown)"
test_value = 91.3

[[record]]
compound = "O=C(NS(=O)(=O)C(F)(F)F)c1ccc2nc(N3C4CCC3CC(NCc3c(-c5c(Cl)cccc5Cl)noc3C3CC3)C4)sc2c1 (stereo not shown)"
test_value = 75

[[record]]
compound = "O=C(NS(=O)(=O)N1CCCC1)c1cc(F)c2nc(N3CCC(NCc4c(-c5c(Cl)cccc5Cl)noc4C4CC4)CC3)sc2c1"
test_value = 91

[[record]]
compound = "O=C(O)c1ccc(N2C3CCC2CC(NCc2c(-c4c(Cl)cccc4Cl)noc2C2CC2)C3)nc1 (stereo not shown)"
test_value = 86.5

[[record]]
compound = "CC1(S(=O)(=O)NC(=O)c2ccc3nc(N4C5CCC4CC(N(C=O)Cc4c(-c6c(Cl)cccc6Cl)noc4C4CC4)C5)sc3c2)CC1 (stereo not shown)"
test_value = 130

[[record]]
compound = "O=C(NS(=O)(=O)C1CC1)c1ccc2nc(N3C4CCC3CC(NCc3c(-c5ccccc5C(F)(F)F)noc3C3CC3)C4)sc2c1 (stereo not shown)"
test_value = 87.5

